- Assay name: NCI Yeast Anticancer Drug Screen. Data for the cln2 rad14 strain (AID 165);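 further: 0% = growth equal to vehicle treated cultures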
- Condition parameters: S. cerevisiae cln2 rad14 strain, at 50.0 µM
This is part of a sample that, as a whole, favours compounds with a hit. Of some 79,000 tested, about 15% had one in any assay. The source made the active and inactive calls. No stated cut-off is given here; in the data, active means growth inhibition above about 70%; inactive means the rest.
Possible outcomes: active, inactive

• Nc1nc(N)c2cc(Sc3ccc4ccccc4c3)ccc2n1 = active
• ClCCn1c(CCl)nc2ccc(Cl)cc21 = inactive
• CCN(CC)N=Nc1c(C(N)=O)n[nH]c1C = inactive
• Cc1cccc2c1N=C(C(F)(F)F)CC2=O = inactive
• COc1cc(N(C)C)ccc1/C=C\c1ccnc2ccccc12 = inactive
• Cc1ccc(S(=O)(=O)N(C)c2ccc(Cl)cc2C2=NCCc3ccccc32)cc1 = active
• O=C1CC(=O)N(C2CCCCC2)C(=O)N1c1ccccc1S(=O)(=O)Oc1ccccc1 = inactive
• CN[C@@H]1C[C@H]2O[C@@](C)([C@@H]1OC)n1c3ccccc3c3c4c(c5c6ccccc6n2c5c31)C(=O)N[C@@H]4O = inactive
• O=NN(CCCl)C(=O)NCCCl = inactive
• CC1=CCCC2C1(C)CCC(C)C2(C)Cc1cc(O)ccc1O (stereo not given) = active
• COc1ccc(SCc2cc(OC)ccc2OC)cc1 = inactive
• Cn1c2nc3ccccc3c-2nc2ccccc21 = active
• CC[C@@]1(OC(=O)CN(C)C)C(=O)OCc2c1cc1n(c2=O)Cc2cc3c(N)cccc3nc2-1 = inactive
• NC(=O)N1c2ccccc2C=Cc2ccccc21 = inactive
• CCOP1(=O)C=C(Sc2ccc([N+](=O)[O-])cc2[N+](=O)[O-])C(C)(C)O1 (stereo not given) = inactive
• N#C/C(=C\c1ccccc1)c1ccccc1F = inactive
• O=[N+]([O-])c1c(/C=N/Nc2ccccc2)oc(-c2ccc3c(c2)OCO3)c1-c1ccc2c(c1)OCO2 = active
• CN=C(N)N/N=C(\C)c1ccc2oc3ccc(/C(C)=N/NC(N)=NC)cc3c2c1 = active
• CC[C@@]1(OC(=O)CCC(=O)O)C(=O)OCc2c1cc1n(c2=O)Cc2cc3ccccc3nc2-1 = inactive
• COCCCN(Cc1cc(OC)c(OC)c(OC)c1)C(=S)Nc1cccc(Cl)c1 = inactive
• C=C(CCCO)[C@@H]1CC[C@@](C)(O)[C@H]1C = inactive
• C(=N/NC1=NCCN1)/c1c2ccccc2c(/C=N\NC2=NCCN2)c2ccccc12 = inactive
• O=C1c2cccc3cc([N+](=O)[O-])cc(c23)C(=O)N1CCN1CCCC1 = inactive
• O=[N+]([O-])c1cccc2nc3ccccc3c(NCCc3cccc[n+]3[O-])c12 = active
• O=C1c2ccccc2CCC1(Br)Br = active

---

- Assay name: NCI Yeast Anticancer Drug Screen. Data for the wt1 strain (AID 149);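 further: 0% = growth of vehicle-treated wt1 cultures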
- Condition parameters: S. cerevisiae wt1 strain (SPY 50644) growth inhibition; at 3.7 µM; active compounds read high
This is part of a sample that, as a whole, favours compounds with a hit. Of some 79,000 tested, about 15% had one in any assay.
Metric: growth inhibition (%)

• COc1cc([C@@H]2c3cc4c(cc3[C@@H](OC3OC5COC(C)OC5C(O)C3O)[C@H]3COC(=O)[C@H]23)OCO4)cc(OC)c1O (stereo not given in full) = -2
• Cc1ccc(I)cc1N=C=S = -14
• COc1ccc2c(c1)[nH]c1c(/C=C/c3ccccc3)nccc12 = -32
• O=[N+]([O-])/C(C(Cl)=C(Cl)Cl)=C1/OCCS1 = 30
• Cc1cc(OCc2ccccc2)ccc1[N+](=O)[O-] = -10

---

Reported growth inhibition values for the following compounds.
- Assay name: NCI Yeast Anticancer Drug Screen. Data for the rad52 strain (AID 147);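 further: 0% = growth of vehicle-treated control cultures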
- Condition parameters: S. cerevisiae rad52 mutant growth inhibition; at 100.0 µM; active compounds read high
About 79,000 compounds went through this panel and 15% of them were active in at least one assay; those are over-represented in the sample as a whole.
Metric: growth inhibition (%)

- CCc1[nH]nc(C(N)=O)c1N=NN(C)C: 97
- CN(C)c1ccc(/C=C/c2ccnc3ccccc23)cc1N: 5
- CN(N=O)C(=O)N[C@@H](C=O)[C@@H](O)[C@H](O)[C@H](O)CO: 3
- CN=C(N)N/N=C(\C)c1ccc2oc3ccc(/C(C)=N/NC(N)=NC)cc3c2c1: 98
- CNc1ccc(Cc2c[nH]c3ccccc23)cc1: 22
- CCN(CC)N=Nc1c(C(N)=O)n[nH]c1C: 93
- CN(C)CCN1C(=O)c2cccc3cc([N+](=O)[O-])cc(c23)C1=O: 93
- O=C(Nc1cccc(C(F)(F)F)c1)Oc1ccc(Cl)cc1C(=O)c1ccccc1: 98
- COC(=O)c1n[nH]c(C)c1N=NN(C)CCC#N: 99
- Cc1cc(O)c2c(c1O)C(=O)C13C(=C2O)C(=O)C2C(O)C1C1C(O)C3C(=O)C3=C(O)c4c(O)cc(C)c(O)c4C(=O)C321 (stereo not given): 90

---

- Assay name: NCI Yeast Anticancer Drug Screen. Data for the cln2 rad14 strain (AID 165);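 further: 0% = growth equal to vehicle treated cultures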
- Condition parameters: S. cerevisiae cln2 rad14 strain, at 50.0 µM (retest, dose inferred, filed as 5.0)
This is part of a sample that, as a whole, favours compounds with a hit. Of some 79,000 tested, about 15% had one in any assay. The source made the active and inactive calls. Rule as the data show it: active = growth inhibition above about 70%; inactive = the rest.
Possible outcomes: active, inactive

- COc1ccc(N)c2c1C(=O)c1ccccc1C2=O: active
- Cc1cccc2c1N=C(C(F)(F)F)CC2=O: inactive
- Cc1c(-c2ccccc2)[nH]c2ccccc12: active
- O=C(O)c1cccc2cccc(-c3c4ccc(=O)cc-4oc4cc(O)ccc34)c12: active
- c1ccc2c(c1)ccc1c3ccncc3ccc21: active
- COC(=O)c1ccc2c(c1)Cc1ccccc1-2: inactive
- CCCCCCCCCCCCCCCCCCNC(=S)/N=C\C1=C(O)c2ccccc2C1=O: inactive
- COC(=O)c1n[nH]c(C)c1N=NN(C)CCC#N: active
- On1cnc(=S)c2[nH]cnc21: active
- Cn1ncc2cc3c(Nc4ccc(Cl)cc4)cccc3nc21: inactive
- N#CSC1CCCCNC1=O (stereo unspecified): inactive
- O=Nn1c2ccccc2c2cc([N+](=O)[O-])ccc21: inactive
- CN(N=O)c1ccc(/C=C/c2ccnc3ccccc23)cc1: inactive
- N#Cc1sc2c(c1OC(=O)c1ccco1)c(=O)n(-c1ccccc1)c(=S)n2-c1ccccc1: active
- CSc1s[s+]c(SC)c1-c1ccccc1: inactive
- O=C1c2ccccc2CCC1(Br)Br: active
- O=C1CSC(=S)N1Cc1ccc(Cl)cc1Cl: active
- CNc1nc(C)nc2c1cnn2-c1ccc([N+](=O)[O-])cc1: inactive
- CC(=O)C1=C(O)C2(C)c3c(O)c(C)c(O)c(C(C)=O)c3OC2(Sc2ccccc2)CC1=O (stereo unspecified): active
- C(=N/NC1=NCCN1)/c1c2ccccc2c(/C=N\NC2=NCCN2)c2ccccc12: inactive
- Cc1nc2c(ncn2CCO)c(=O)[nH]1: inactive

---

- Assay name: NCI Yeast Anticancer Drug Screen. Data for the rad18 strain (AID 177)
- Condition parameters: S. cerevisiae rad18 mutant growth inhibition; at 33.0 µM
The panel holds about 79,000 compounds, 15% with a hit somewhere; the sample as a whole holds those more often. Activity calls are given as the source filed them. Rule as the data show it: active = growth inhibition above about 70%; inactive = the rest.
Possible outcomes: yes (1) for active, no (0) for inactive

* Nc1cc(F)cc2c1-c1ccc(F)cc1C2 | no (0)
* CC(=O)[C@]1(O)Cc2c(O)c3c(c(O)c2[C@@H](OC2CC(N)C(O)C(C)O2)C1)C(=O)c1c(OCc2ccccc2)cccc1C3=O (stereo not given in full) | no (0)
* COc1ccc2oc(-c3ccc(Cl)cc3)c(N3CCN(C)CC3)c2c1 | yes (1)
* CC(=O)Oc1ccc(N2C(=O)C3c4[nH]c5ccccc5c4C4CCC(C(C)(C)C)CC4C3C2=O)cc1 (stereo not given) | yes (1)
* Cc1ccc(Nc2n[nH]c(=S)s2)cc1 | yes (1)

---

- Assay name: NCI Yeast Anticancer Drug Screen. Data for the rad50EPP+ strain (AID 151);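 further: 0% = growth of vehicle-treated control cultures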
- Condition parameters: S. cerevisiae rad50 mutant strain, at 11.0 µM, active compounds read high
About 79,000 compounds went through this panel and 15% of them were active in at least one assay; those are over-represented in the sample as a whole. The source made the active and inactive calls. No stated cut-off is given here; in the data, active means growth inhibition above about 70%; inactive means the rest.
Reported growth inhibition values for the following compounds.
Metric: growth inhibition

* CC(=O)[C@]1(O)Cc2c(O)c3c(c(O)c2[C@@H](OC2CC(N)C(O)C(C)O2)C1)C(=O)c1c(OCc2ccccc2)cccc1C3=O (stereo partly specified) | 28% (inactive)
* CC(=O)N1C(=O)/C(=C\C(=O)c2ccc(Cl)cc2)c2ccccc21 | 22% (inactive)
* S=C(S)NCC1CCC(CNC(=S)S)CC1 (stereo unspecified) | 24% (inactive)
* S=c1[nH]c2c(Cl)c(Cl)c(Cl)c(Cl)c2[nH]1 | 81% (active)
* CC1C(C#N)(C#N)C(C#N)=C(N)C1(Cl)[N+](=O)[O-] (stereo unspecified) | 55% (inactive)
* Cc1cc(C)c(N2C(=O)CC(Sc3ccccc3N)C2=O)c(C)c1 (stereo unspecified) | -16% (inactive)
